So I've got a bunch of binders here, and I need their Fold change to WT CD80 values.
target: T1, human PD-L1 (human, UniProt Q9NZQ7 19-290); test: flow cytometry MFI relative to WT CD80 IgV-Fc, CHO/huPD-L1 cells, 33.3 nM
T1 construct: whole, on cells; CHO cells stably expressing huPD-L1; also called huPD-L1
T1 sequence (Q9NZQ7 19-290): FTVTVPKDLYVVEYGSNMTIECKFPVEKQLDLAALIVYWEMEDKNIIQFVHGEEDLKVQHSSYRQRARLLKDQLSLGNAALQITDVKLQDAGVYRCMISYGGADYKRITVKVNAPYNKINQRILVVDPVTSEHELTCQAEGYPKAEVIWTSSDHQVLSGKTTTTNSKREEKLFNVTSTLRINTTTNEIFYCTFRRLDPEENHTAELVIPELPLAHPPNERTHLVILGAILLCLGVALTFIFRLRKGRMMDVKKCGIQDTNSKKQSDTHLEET
Answers are plain numbers, in fold.

Could I get Fold change to WT CD80 for every one of these entries?
1. variant CD80 IgV-Fc (inert) H18V/A26P/E35D/M47L/V68M/A71G (Fc fusion, not shown: inert human IgG1 Fc) VIHVTKEVKEVATLSCGVNVSVEELPQTRIYWQKDKKMVLTMMSGDLNIWPEYKNRTIFDITNNLSIMILGLRPSDEGTYECVVLKYEKDAFKREHLAEVTLSVKAD
2. variant CD80 IgV-Fc (inert) H18F/A26N/E35D/M47V/V68M/A71G/D90K (Fc fusion, not shown: inert human IgG1 Fc) VIHVTKEVKEVATLSCGFNVSVEELNQTRIYWQKDKKMVLTMMSGDVNIWPEYKNRTIFDITNNLSIMILGLRPSDEGTYECVVLKYEKKAFKREHLAEVTLSVKAD
3. variant CD80 IgV-Fc (inert) H18L/E35D/M47V/V68M/A71G/D90G (Fc fusion, not shown: inert human IgG1 Fc) VIHVTKEVKEVATLSCGLNVSVEELAQTRIYWQKDKKMVLTMMSGDVNIWPEYKNRTIFDITNNLSIMILGLRPSDEGTYECVVLKYEKGAFKREHLAEVTLSVKAD
4. variant CD80 IgV-Fc (inert) H18V/A26Q/E35D/M47V/V68L/A71G/D90G (Fc fusion, not shown: inert human IgG1 Fc) VIHVTKEVKEVATLSCGVNVSVEELQQTRIYWQKDKKMVLTMMSGDVNIWPEYKNRTIFDITNNLSILILGLRPSDEGTYECVVLKYEKGAFKREHLAEVTLSVKAD

Response:
1. 318
2. 136
3. 392
4. 204
